system: human hepatoma cell line ET; test: Cytotoxicity in the replicon cell line, colorimetric assay of cell numbers; settings: read-out: Cytotoxicity IC90; ET cells, 72 h; concentration inhibiting cell viability by 90%
Some molecules, each annotated with its measured IC90.
measurementName: IC90

1) CC=CCC(C)C(O)C1C(=O)NC(CC)C(=O)N(C)C(SCCN(C)C)C(=O)N(C)C(CC(C)(C)O)C(=O)NC(C(C)C)C(=O)N(C)C(CC(C)C)C(=O)NC(C)C(=O)NC(C)C(=O)N(C)C(CC(C)C)C(=O)N(C)C(CC(C)C)C(=O)N(C)C(C(C)C)C(=O)N1C (stereo not drawn) [MeSO2]	> 2000 nM
2) C/C=C/C[C@@H](C)[C@@H](O)[C@H]1C(=O)N[C@@H](CC)C(=O)N(C)C(OC)C(=O)N(C)[C@@H](CC(C)(C)O)C(=O)N[C@@H](C(C)C)C(=O)N(C)[C@@H](CC(C)C)C(=O)N[C@@H](C)C(=O)N[C@H](C)C(=O)N(C)[C@@H](CC(C)C)C(=O)N(C)[C@@H](CC(C)C)C(=O)N(C)[C@@H](C(C)C)C(=O)N1C (some centres unmarked) [Compound T]	> 2000 nM

###

system: human hepatoma cell line ET; test: Cytotoxicity in the replicon cell line, colorimetric assay of cell numbers; conditions: read-out: Cytotoxicity IC50; ET cells, 72 h; concentration inhibiting cell viability by 50%
Some molecules, each annotated with its measured IC50.
measurementName: IC50 (nM)

1) C/C=C/C[C@@H](C)[C@@H](O)[C@H]1C(=O)N[C@@H](CC)C(=O)N(C)C(OC)C(=O)N(C)[C@@H](CC(C)C)C(=O)N[C@@H](C(C)C)C(=O)N(C)[C@@H](CC(C)C)C(=O)N[C@@H](C)C(=O)N[C@H](C)C(=O)N(C)[C@@H](CC(C)C)C(=O)N(C)[C@@H](CC(C)C)C(=O)N(C)[C@@H](C(C)C)C(=O)N1C (stereo partly drawn)	2330
2) C/C=C/C[C@@H](C)[C@@H](O)[C@H]1C(=O)N[C@@H](CC)C(=O)N(C)C(OCCO)C(=O)N(C)[C@@H](CC(C)C)C(=O)N[C@@H](C(C)C)C(=O)N(C)[C@@H](CC(C)C)C(=O)N[C@@H](C)C(=O)N[C@H](C)C(=O)N(C)[C@@H](CC(C)C)C(=O)N(C)[C@@H](CC(C)C)C(=O)N(C)[C@@H](C(C)C)C(=O)N1C (stereo partly drawn) [G, 3-(2-hydroxyethoxy)cyclosporin]	10300

###

test system: human hepatoma cell line ET; assay: Cytotoxicity in the replicon cell line, colorimetric assay of cell numbers; conditions: read-out: Cytotoxicity IC50; ET cells, 72 h; concentration inhibiting cell viability by 50%
Some compounds, each annotated with its measured IC50.
measurementName: IC50

1. CC=CCC(C)C(O)C1C(=O)NC(CC)C(=O)N(C)C(SCCN(C)C)C(=O)N(C)C(CC(C)(C)O)C(=O)NC(C(C)C)C(=O)N(C)C(CC(C)C)C(=O)NC(C)C(=O)NC(C)C(=O)N(C)C(CC(C)C)C(=O)N(C)C(CC(C)C)C(=O)N(C)C(C(C)C)C(=O)N1C (stereo not drawn) [acetate]	> 2 µM
2. CC=CCC(C)C(O)C1C(=O)NC(CC)C(=O)N(C)C(OCCN2CCCCC2)C(=O)N(C)C(CC(C)C)C(=O)NC(C(C)C)C(=O)N(C)C(CC(C)C)C(=O)NC(C)C(=O)NC(C)C(=O)N(C)C(CC(C)C)C(=O)N(C)C(CC(C)C)C(=O)N(C)C(C(C)C)C(=O)N1C (stereo not drawn) [K, 3-[2-(piperidin-1-yl)ethoxy]cyclosporin]	5.5 µM
3. C/C=C/C[C@@H](C)[C@@H](O)[C@H]1C(=O)N[C@@H](CC)C(=O)N(C)[C@H](SCCOC)C(=O)N(C)[C@@H](CC(C)(C)O)C(=O)N[C@@H](C(C)C)C(=O)N(C)[C@@H](CC(C)C)C(=O)N[C@@H](C)C(=O)N[C@H](C)C(=O)N(C)[C@@H](CC(C)C)C(=O)N(C)[C@@H](CC(C)C)C(=O)N(C)[C@@H](C(C)C)C(=O)N1C	> 20 µM

###

Some compounds, each annotated with its measured EC50.
tested on: HCV RNA replicon ET; test: HCV RNA replicon luciferase reporter assay, antiviral activity; assay type: cell-based; details: ET replicon cells, 72 h, LUC activity; concentration reducing viral replication by 50%
measurementName: EC50

1) CC=CCC(C)C(O)C1C(=O)NC(CC)C(=O)N(C)C(SCCN(C)C)C(=O)N(C)C(CC(C)(C)O)C(=O)NC(C(C)C)C(=O)N(C)C(CC(C)C)C(=O)NC(C)C(=O)NC(C)C(=O)N(C)C(CC(C)C)C(=O)N(C)C(CC(C)C)C(=O)N(C)C(C(C)C)C(=O)N1C (stereo not drawn) [MeSO2]	160 nM
2) C/C=C/C[C@@H](C)[C@@H](O)[C@H]1C(=O)N[C@@H](CC)C(=O)N(C)C(OCCOC)C(=O)N(C)[C@@H](CC(C)(C)O)C(=O)N[C@@H](C(C)C)C(=O)N(C)[C@@H](CC(C)C)C(=O)N[C@@H](C)C(=O)N[C@H](C)C(=O)N(C)[C@@H](CC(C)C)C(=O)N(C)[C@@H](CC(C)C)C(=O)N(C)[C@@H](C(C)C)C(=O)N1C (some centres unmarked)	480 nM
3) CC=CCC(C)C(O)C1C(=O)NC(CC)C(=O)N(C)C(SCCN(C)C)C(=O)N(C)C(CC(C)(C)O)C(=O)NC(C(C)C)C(=O)N(C)C(CC(C)C)C(=O)NC(C)C(=O)NC(C)C(=O)N(C)C(CC(C)C)C(=O)N(C)C(CC(C)C)C(=O)N(C)C(C(C)C)C(=O)N1C (centres unmarked) [phosphate]	130 nM
4) C/C=C/C[C@@H](C)[C@@H](O)[C@H]1C(=O)N[C@@H](CC)C(=O)N(C)[C@H](OCCN(C)C)C(=O)N(C)[C@@H](CC(C)C)C(=O)N[C@@H](C(C)C)C(=O)N(C)[C@@H](CC(C)C)C(=O)N[C@@H](C)C(=O)N[C@H](C)C(=O)N(C)[C@@H](CC(C)C)C(=O)N(C)[C@@H](CC(C)C)C(=O)N(C)[C@@H](C(C)C)C(=O)N1C	180 nM
5) C/C=C/C[C@@H](C)[C@@H](O)[C@H]1C(=O)N[C@@H](CC)C(=O)N(C)[C@H](OCCN2CCOCC2)C(=O)N(C)[C@@H](CC(C)C)C(=O)N[C@@H](C(C)C)C(=O)N(C)[C@@H](CC(C)C)C(=O)N[C@@H](C)C(=O)N[C@H](C)C(=O)N(C)[C@@H](CC(C)C)C(=O)N(C)[C@@H](CC(C)C)C(=O)N(C)[C@@H](C(C)C)C(=O)N1C	280 nM
6) C/C=C/C[C@@H](C)[C@@H](O)[C@H]1C(=O)N[C@@H](CC)C(=O)N(C)[C@H](OC(C)C)C(=O)N(C)[C@@H](CC(C)C)C(=O)N[C@@H](C(C)C)C(=O)N(C)[C@@H](CC(C)C)C(=O)N[C@@H](C)C(=O)N[C@H](C)C(=O)N(C)[C@@H](CC(C)C)C(=O)N(C)[C@@H](CC(C)C)C(=O)N(C)[C@@H](C(C)C)C(=O)N1C	290 nM
7) C/C=C/C[C@@H](C)[C@@H](O)[C@H]1C(=O)N[C@@H](CC)C(=O)N(C)C(OCCCO)C(=O)N(C)[C@@H](CC(C)C)C(=O)N[C@@H](C(C)C)C(=O)N(C)[C@@H](CC(C)C)C(=O)N[C@@H](C)C(=O)N[C@H](C)C(=O)N(C)[C@@H](CC(C)C)C(=O)N(C)[C@@H](CC(C)C)C(=O)N(C)[C@@H](C(C)C)C(=O)N1C (some centres unmarked) [H, 3-(3-hydroxypropoxy)cyclosporin]	< 200 nM
8) C=CCS[C@@H]1C(=O)N(C)[C@@H](CC(C)C)C(=O)N[C@@H](C(C)C)C(=O)N(C)[C@@H](CC(C)C)C(=O)N[C@@H](C)C(=O)N[C@H](C)C(=O)N(C)[C@@H](CC(C)C)C(=O)N(C)[C@@H](CC(C)C)C(=O)N(C)[C@@H](C(C)C)C(=O)N(C)[C@@H]([C@H](O)[C@H](C)C/C=C/C)C(=O)N[C@@H](CC)C(=O)N1C	210 nM
9) C/C=C/C[C@@H](C)[C@@H](O)[C@H]1C(=O)N[C@@H](CC)C(=O)N(C)C(OCCO)C(=O)N(C)[C@@H](CC(C)C)C(=O)N[C@@H](C(C)C)C(=O)N(C)[C@@H](CC(C)C)C(=O)N[C@@H](C)C(=O)N[C@H](C)C(=O)N(C)[C@@H](CC(C)C)C(=O)N(C)[C@@H](CC(C)C)C(=O)N(C)[C@@H](C(C)C)C(=O)N1C (some centres unmarked) [G, 3-(2-hydroxyethoxy)cyclosporin]	< 200 nM
10) C/C=C/C[C@@H](C)[C@@H](O)[C@H]1C(=O)N[C@@H](CC)C(=O)N(C)[C@H](OCCCOC)C(=O)N(C)[C@@H](CC(C)(C)O)C(=O)N[C@@H](C(C)C)C(=O)N(C)[C@@H](CC(C)C)C(=O)N[C@@H](C)C(=O)N[C@H](C)C(=O)N(C)[C@@H](CC(C)C)C(=O)N(C)[C@@H](CC(C)C)C(=O)N(C)[C@@H](C(C)C)C(=O)N1C	300 nM
11) C=CCO[C@@H]1C(=O)N(C)[C@@H](CC(C)(C)O)C(=O)N[C@@H](C(C)C)C(=O)N(C)[C@@H](CC(C)C)C(=O)N[C@@H](C)C(=O)N[C@H](C)C(=O)N(C)[C@@H](CC(C)C)C(=O)N(C)[C@@H](CC(C)C)C(=O)N(C)[C@@H](C(C)C)C(=O)N(C)[C@@H]([C@H](O)[C@H](C)C/C=C/C)C(=O)N[C@@H](CC)C(=O)N1C	90 nM
